# Tested on: Escherichia coli TOP10;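 note: peptides expressed intracellularly from a pBAD plasmid library in pooled LB shake-flask culture, induced with 0.3% L-arabinose, DNA abundance read by NGS, three biological replicates, DESeq2 with apeglm shrinkage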
# experiment_notes: shrunken log2 fold change of peptide-encoding DNA abundance (4.5 h post-induction vs induction); higher = less antimicrobial activity (less host growth inhibition)
# setup_conditions: time post-induction: 4.5 h; library: site-saturation at positions 5, 18, 19, 20
Outcome label depends on shrunken log2 fold change relative to -0.07: at/above gives YES, below gives NO.

Examples from the recorded data:
RRIRLRPPRLPRPRPRPSLWPRP	YES
RRIRLRPPRLPRPRPRPNVTPRP	NO
RRIRDRPPRLPRPRPRPETSPRP	YES
RRIRCRPPRLPRPRPRPNVMPRP	NO

Prompt line: Does "RRIRWRPPRLPRPRPRPGVWPRP" have a reported shrunken log2 fold change of at least -0.07?
Response line: YES

Prompt line: Item "RRIRCRPPRLPRPRPRPMFHPRP" with shrunken log2 fold change of -0.07 or above?
Response line: NO

Prompt line: Does "RRIRDRPPRLPRPRPRPFTMPRP" have a reported shrunken log2 fold change of at least -0.07?
Response line: YES

Prompt line: # check: shrunken log2 fold change of "RRIRDRPPRLPRPRPRPVFQPRP" is greater than or equal to -0.07
Response line: NO

Prompt line: Is the recorded value of shrunken log2 fold change equal to or greater than -0.07 for this sequence? "RRIRMRPPRLPRPRPRPCSDPRP"
Response line: YES
